Origin of measurements: patent US20130216547A1

Molecular target: T1, human big-endothelin-1 (big-ET-1) (human)
T1 construct: 38 amino acid peptide; also called human big-ET-1; hBig-ET-1
T1 peptide: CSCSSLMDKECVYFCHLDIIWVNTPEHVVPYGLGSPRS
Assay: SPR (Biacore T200), 37 C, mAb capture, peptide analyte
Quantity measured: pKd
As a rule, pKd stands for the negative log10 of the concentration, concentration in M.

Given the binder H4H6317P (antibody, V domains shown, Human IgG4 Fc (prefix H4H)) VH: QVQLVESGGGVVQPGRSLRLSCAASGFTFSSYGMHWVRQAPGKGLEWVAVLWYDGRNKYYADSVKGRFTISRDNSKNTLYLQMNSLRAEDTAVYYCARSYDAFDIWGQGTMVTVSS VL: DIQMTQSPSTLSASVGDRVTITCRASQSISSWLAWFQQGPGRAPKLLIYKASTLQSGVPSRFSGSGSGTEFTLTISSLQPDDFATYYCQQYRSYSPTFGQGTKVEIK , what is its reported pKd?
8.27

Given the binder H4H6329P (antibody, V domains shown, Human IgG4 Fc (prefix H4H)) VH: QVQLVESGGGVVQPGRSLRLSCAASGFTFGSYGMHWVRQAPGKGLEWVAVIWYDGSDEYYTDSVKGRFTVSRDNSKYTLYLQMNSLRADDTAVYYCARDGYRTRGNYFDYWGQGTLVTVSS VL: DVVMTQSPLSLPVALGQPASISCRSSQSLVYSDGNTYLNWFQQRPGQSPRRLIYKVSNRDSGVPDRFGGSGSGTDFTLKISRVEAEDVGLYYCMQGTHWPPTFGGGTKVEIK , what is its reported pKd?
9.53

Given the binder H4H6492N2 (antibody, V domains shown, Human IgG4 Fc (prefix H4H)) VH: EVQLVESGGGLVKPGGSLRVSCVASGFTFSNAWMTWVRQTPGKGLEWVGRIKSRTDGGTVDYVAPVKGRFTISRDDSKNTLYLQMNSLKAEDTAVYYCRADLDYWGQGTLVTVSS VL: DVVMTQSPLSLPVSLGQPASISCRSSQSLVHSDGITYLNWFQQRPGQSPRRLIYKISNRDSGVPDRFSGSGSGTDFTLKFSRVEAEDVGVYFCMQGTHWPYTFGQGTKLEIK , what is its reported pKd?
7.15
